# protocol: probe aCHRDL2 binding to arrayed compounds – biochemical, biotinylated probe, 635/667 nm fluorescence, primary screen (AID 1100)
# experimental-setup: small-molecule microarray, higher = more signal
assay-endpoint: composite z-score
Respond with the number and no other words.

Known composite z-score results, listed for orientation:
molecule: O=C(NC1CC1)[C@@H]1c2ccccc2C(=O)N(Cc2cc(F)cc(C(F)(F)F)c2)[C@H]1c1ccc(CO)cc1
assay-endpoint: composite z-score
measured-result: 0.447
--
molecule: COC(=O)c1c2oc(c1C(=O)OC)C(=O)NC1(CCCCC1)c1cn(nn1)C[C@H](Cc1ccccc1)NC(=O)N[C@H](CO)CC2
assay-endpoint: composite z-score
measured-result: -0.709
--
molecule: CCOc1ccc(N2C(=O)CSC2c2cccc([N+](=O)[O-])c2)cc1 (configuration not stated)
assay-endpoint: composite z-score
measured-result: -0.0935
--
molecule: C[N+](C)(C)CCCC[C@@H]1NC(=O)[C@@H]2C[C@H](C(=O)NCCCCCCNC(=O)CS)[C@H](c3ccc(O)cc3)N2C1=O
assay-endpoint: composite z-score
measured-result: 0.492
--
molecule: C=CCNC(=O)[C@@H]1[C@H]2C(=O)O[C@H](c3ccccc3)[C@H](c3ccccc3)N2[C@H](c2ccc(OCCO)cc2)[C@@]12C(=O)N(C(=O)OCCOC)c1ccc(C#CCNC(N)=O)cc12
assay-endpoint: composite z-score
measured-result: 0.747

Q: I'd like to know its composite z-score. The molecule in question is NCCCCCCNC(=O)[C@H]1C[C@H]2C(=O)N[C@@H](Cc3ccccc3)C(=O)N2[C@H]1c1cccc(OCCO)c1
A: 0.713

Q: Follow-up entry: CCN(CC)c1ccc(N2CC=CC34O[C@@H]5C=CCOC(=O)[C@@H]5[C@H]3C(=O)N(CCCCCCO)[C@@H]4C2=O)cc1 (some centres not stated)
A: 0.844

This collection of values is drawn from PubChem BioAssay.
